System: MCF-7/ADR breast cancer cell line
MEASUREMENT_PROTOCOL: MTT antiproliferative assay, MCF-7/ADR
Format: cell-based
TEST_PARAMETERS: Homo sapiens, NCI/ADR-RES, MCF-7/ADR (drug-resistant)
QUANTITY_KIND: IC50 (µM)

{"COMPOUND": "Cc1ccc2c(c1)C(=NNC(N)=S)C(=O)N2CCCOC1O[C@@H]2O[C@@]3(C)CC[C@H]4[C@H](C)CC[C@@H]([C@H]1C)[C@@]24OO3 (stereo partly shown)", "QUANTITY_KIND": "IC50", "TEST_VALUE": 36.4}
{"COMPOUND": "Cc1ccc2c(c1)C(=NNC(N)=O)C(=O)N2CCOC1O[C@@H]2O[C@@]3(C)CC[C@H]4[C@H](C)CC[C@@H]([C@H]1C)[C@@]24OO3 (stereo partly shown)", "QUANTITY_KIND": "IC50", "TEST_VALUE": 33.3}
{"COMPOUND": "Cc1ccc2c(c1)C(=O)C(=O)N2CCCCOC1O[C@@H]2O[C@@]3(C)CC[C@H]4[C@H](C)CC[C@@H]([C@H]1C)[C@@]24OO3 (stereo partly shown)", "QUANTITY_KIND": "IC50", "TEST_VALUE": 49.9}
{"COMPOUND": "Cc1ccc2c(c1)C(=NO)C(=O)N2CCCOC1O[C@@H]2O[C@@]3(C)CC[C@H]4[C@H](C)CC[C@@H]([C@H]1C)[C@@]24OO3 (stereo partly shown)", "QUANTITY_KIND": "IC50", "TEST_VALUE": 28.7}
{"COMPOUND": "C[C@H]1[C@@H](O)O[C@@H]2O[C@@]3(C)CC[C@H]4[C@H](C)CC[C@@H]1[C@@]24OO3 [DHA, Dihydroartemisinin]", "QUANTITY_KIND": "IC50", "TEST_VALUE": 79.1}

a = Cc1ccc2c(c1)C(=NNC(N)=O)C(=O)N2CCCCOC1O[C@@H]2O[C@@]3(C)CC[C@H]4[C@H](C)CC[C@@H]([C@H]1C)[C@@]24OO3 (stereo partly shown)
b = Cc1ccc2c(c1)C(=O)C(=O)N2CCCOC1O[C@@H]2O[C@@]3(C)CC[C@H]4[C@H](C)CC[C@@H]([C@H]1C)[C@@]24OO3 (stereo partly shown)
c = Cc1ccc2c(c1)C(=NO)C(=O)N2CCOC1O[C@@H]2O[C@@]3(C)CC[C@H]4[C@H](C)CC[C@@H]([C@H]1C)[C@@]24OO3 (stereo partly shown)
Returns the items ordered by IC50, from maximum to minimum. Put the labels in the order asked and list them.
b, a, c

a = CCON=C1C(=O)N(CCOC2O[C@@H]3O[C@@]4(C)CC[C@H]5[C@H](C)CC[C@@H]([C@H]2C)[C@@]35OO4)c2ccc(C)cc21 (stereo partly shown)
b = Cc1ccc2c(c1)C(=NNC(N)=S)C(=O)N2CCCCOC1O[C@@H]2O[C@@]3(C)CC[C@H]4[C@H](C)CC[C@@H]([C@H]1C)[C@@]24OO3 (stereo partly shown)
For a and b , which recorded IC50 is lower? Respond with the label that goes with your answer.
b
(b: 30.3 µM, a: 61.8 µM)

====

Test system: MDA-MB-231 breast cancer cell line
MEASUREMENT_PROTOCOL: MTT antiproliferative assay, MDA-MB-231
Assay type: cell-based
TEST_PARAMETERS: Homo sapiens; MDA-MB-231, MTT assay
QUANTITY_KIND: IC50 (µM)

Reference set, count: 2
{"COMPOUND": "Cc1ccc2c(c1)C(=NNC(N)=O)C(=O)N2CCCCOC1O[C@@H]2O[C@@]3(C)CC[C@H]4[C@H](C)CC[C@@H]([C@H]1C)[C@@]24OO3 (stereo partly shown)", "TARGET_OR_TEST_SYSTEM": "MDA-MB-231 breast cancer cell line", "IC50 (µM)": 31.2}
{"COMPOUND": "Cc1ccc2c(c1)C(=NO)C(=O)N2CCCOC1O[C@@H]2O[C@@]3(C)CC[C@H]4[C@H](C)CC[C@@H]([C@H]1C)[C@@]24OO3 (stereo partly shown)", "TARGET_OR_TEST_SYSTEM": "MDA-MB-231 breast cancer cell line", "IC50 (µM)": 42.6}

I = CCON=C1C(=O)N(CCOC2O[C@@H]3O[C@@]4(C)CC[C@H]5[C@H](C)CC[C@@H]([C@H]2C)[C@@]35OO4)c2ccc(C)cc21 (stereo partly shown)
II = Cc1ccc2c(c1)C(=NO)C(=O)N2CCCCOC1O[C@@H]2O[C@@]3(C)CC[C@H]4[C@H](C)CC[C@@H]([C@H]1C)[C@@]24OO3 (stereo partly shown)
IC50 comparison. Which is larger, I or II ? Respond with the label that goes with your answer.
I

====

MEASUREMENT_PROTOCOL: MTT cytotoxicity assay, MCF-10A
TEST_PARAMETERS: human, MCF-10A normal breast cells
Parameter IC50 at 24 h: see the listing below.

Reference set, count: 2
{"MOLECULE": "COc1cccc2c1C(=O)c1c(O)c3c(c(O)c1C2=O)C[C@@](O)(C(=O)CO)C[C@@H]3O[C@H]1C[C@H](N)[C@H](O)[C@H](C)O1 [ADR, Adriamycin, reference compound]", "QUANTITY_KIND": "IC50 at 24 h", "TEST_VALUE": "68.8 µM"}
{"MOLECULE": "Cc1ccc2c(c1)C(=O)C(=O)N2CCOC1O[C@@H]2O[C@@]3(C)CC[C@H]4[C@H](C)CC[C@@H]([C@H]1C)[C@@]24OO3 (stereo partly shown) [Hybrid 6a]", "QUANTITY_KIND": "IC50 at 24 h", "TEST_VALUE": "> 100 µM"}

Supply recorded IC50 at 24 h for Cc1ccc2c(c1)C(=NNC(N)=S)C(=O)N2CCCOC1O[C@@H]2O[C@@]3(C)CC[C@H]4[C@H](C)CC[C@@H]([C@H]1C)[C@@]24OO3 (stereo partly shown) [Hybrid 7f] here.
> 100 µM

Supply recorded IC50 at 24 h for Cc1ccc2c(c1)C(=NNC(N)=O)C(=O)N2CCCCOC1O[C@@H]2O[C@@]3(C)CC[C@H]4[C@H](C)CC[C@@H]([C@H]1C)[C@@]24OO3 (stereo partly shown) [Hybrid 7e] here.
> 100 µM

====

Test system: MCF-7/ADR breast cancer cell line
MEASUREMENT_PROTOCOL: MTT antiproliferative assay, MCF-7/ADR
Assay type: cell-based
TEST_PARAMETERS: Homo sapiens, NCI/ADR-RES, MCF-7/ADR (drug-resistant)
pIC50: −log10 of the molar value.
QUANTITY_KIND: pIC50

{"COMPOUND": "Cc1ccc2c(c1)C(=NO)C(=O)N2CCCCOC1O[C@@H]2O[C@@]3(C)CC[C@H]4[C@H](C)CC[C@@H]([C@H]1C)[C@@]24OO3 (stereo partly drawn)", "TARGET_OR_TEST_SYSTEM": "MCF-7/ADR breast cancer cell line", "pIC50": 4.63}
{"COMPOUND": "Cc1ccc2c(c1)C(=O)C(=O)N2CCOC1O[C@@H]2O[C@@]3(C)CC[C@H]4[C@H](C)CC[C@@H]([C@H]1C)[C@@]24OO3 (stereo partly drawn)", "TARGET_OR_TEST_SYSTEM": "MCF-7/ADR breast cancer cell line", "pIC50": 4.60}

====

Tested on: MCF-7/ADR breast cancer cell line
MEASUREMENT_PROTOCOL: MTT antiproliferative assay, MCF-7/ADR
Assay type: cell-based
TEST_PARAMETERS: Homo sapiens, NCI/ADR-RES, MCF-7/ADR (drug-resistant)
Parameter IC50: see the listing below.

Reference set, count: 2
{"COMPOUND": "Cc1ccc2c(c1)C(=NOCc1ccccc1)C(=O)N2CCCCOC1O[C@@H]2O[C@@]3(C)CC[C@H]4[C@H](C)CC[C@@H]([C@H]1C)[C@@]24OO3 (stereo partly drawn)", "TEST_VALUE": "> 100 µM"}
{"COMPOUND": "Cc1ccc2c(c1)C(=NOCc1ccccc1)C(=O)N2CCOC1O[C@@H]2O[C@@]3(C)CC[C@H]4[C@H](C)CC[C@@H]([C@H]1C)[C@@]24OO3 (stereo partly drawn)", "TEST_VALUE": "> 100 µM"}

Kindly consider the entry below.
Give IC50; test system MCF-7/ADR breast cancer cell line; compound COc1cccc2c1C(=O)c1c(O)c3c(c(O)c1C2=O)C[C@@](O)(C(=O)CO)C[C@@H]3O[C@H]1C[C@H](N)[C@H](O)[C@H](C)O1 [ADR, Adriamycin, reference compound]
> 100 µM

====

System: MDA-MB-231 breast cancer cell line
MEASUREMENT_PROTOCOL: MTT antiproliferative assay, MDA-MB-231
Format: cell-based
TEST_PARAMETERS: Homo sapiens; MDA-MB-231, MTT assay
QUANTITY_KIND: IC50 (µM)

{"MOLECULE": "Cc1ccc2c(c1)C(=NNC(N)=S)C(=O)N2CCCCOC1O[C@@H]2O[C@@]3(C)CC[C@H]4[C@H](C)CC[C@@H]([C@H]1C)[C@@]24OO3 (stereo partly drawn)", "IC50 (µM)": 35.1}

a = Cc1ccc2c(c1)C(=O)C(=O)N2CCOC1O[C@@H]2O[C@@]3(C)CC[C@H]4[C@H](C)CC[C@@H]([C@H]1C)[C@@]24OO3 (stereo partly drawn)
b = Cc1ccc2c(c1)C(=NNC(N)=S)C(=O)N2CCCOC1O[C@@H]2O[C@@]3(C)CC[C@H]4[C@H](C)CC[C@@H]([C@H]1C)[C@@]24OO3 (stereo partly drawn)
c = Cc1ccc2c(c1)C(=NO)C(=O)N2CCOC1O[C@@H]2O[C@@]3(C)CC[C@H]4[C@H](C)CC[C@@H]([C@H]1C)[C@@]24OO3 (stereo partly drawn)
Write the entries in order, lowest recorded IC50 first. Put the labels in the order asked and list them.
c, a, b

a = Cc1ccc2c(c1)C(=NNC(N)=O)C(=O)N2CCOC1O[C@@H]2O[C@@]3(C)CC[C@H]4[C@H](C)CC[C@@H]([C@H]1C)[C@@]24OO3 (stereo partly drawn)
b = Cc1ccc2c(c1)C(=O)C(=O)N2CCCCOC1O[C@@H]2O[C@@]3(C)CC[C@H]4[C@H](C)CC[C@@H]([C@H]1C)[C@@]24OO3 (stereo partly drawn)
For a and b , which recorded IC50 is lower? Respond with the label that goes with your answer.
a
